The molecules listed here are annotated with their IC50.
target_of_assay: Integrin alpha-4/beta-1 (Homo sapiens, UniProt P05556+P13612)
Sequence (P05556 whole entry, one chain of several): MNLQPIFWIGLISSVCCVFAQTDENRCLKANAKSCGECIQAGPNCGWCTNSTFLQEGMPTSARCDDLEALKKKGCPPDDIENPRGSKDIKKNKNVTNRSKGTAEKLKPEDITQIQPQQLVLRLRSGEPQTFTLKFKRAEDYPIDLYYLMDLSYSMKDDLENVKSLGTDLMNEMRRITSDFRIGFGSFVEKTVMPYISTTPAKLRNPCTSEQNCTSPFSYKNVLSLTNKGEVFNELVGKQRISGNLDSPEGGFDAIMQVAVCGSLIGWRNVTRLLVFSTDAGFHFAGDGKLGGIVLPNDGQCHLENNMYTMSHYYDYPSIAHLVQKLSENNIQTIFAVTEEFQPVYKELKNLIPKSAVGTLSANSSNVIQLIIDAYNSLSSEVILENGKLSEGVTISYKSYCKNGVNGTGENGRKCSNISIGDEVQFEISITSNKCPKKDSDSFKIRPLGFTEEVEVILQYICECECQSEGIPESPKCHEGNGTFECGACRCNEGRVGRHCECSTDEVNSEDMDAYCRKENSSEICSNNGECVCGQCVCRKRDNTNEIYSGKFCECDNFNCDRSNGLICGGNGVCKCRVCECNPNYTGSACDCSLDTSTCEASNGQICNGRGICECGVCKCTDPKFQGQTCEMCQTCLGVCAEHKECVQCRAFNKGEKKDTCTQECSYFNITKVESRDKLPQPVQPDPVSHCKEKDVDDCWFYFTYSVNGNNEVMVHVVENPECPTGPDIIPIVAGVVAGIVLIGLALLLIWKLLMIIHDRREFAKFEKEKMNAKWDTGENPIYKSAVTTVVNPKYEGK
assay_comment: Inhibitory concentration affording 50% inhibition of alpha4-beta1 integrin binding to VCAM-1, using ELISA assay.
Peptide text beside a SMILES is read from it.
Return type: number; implicit unit µM.

CC(C)C[C@@H]1NC(=O)[C@H]([C@@H](C)O)NC(=O)[C@H](CC(=O)O)NC(=O)[C@H](CO)NC(=O)[C@H](CCCNC(=N)N)NC(=O)[C@@H](N)CSSC[C@@H](C(=O)NCC(N)=O)NC1=O (HELM PEPTIDE1{C.R.S.D.T.L.C.G.[am]}$PEPTIDE1,PEPTIDE1,1:R3-7:R3$$$V2.0) = 3.8
CC(C)C[C@H]1NC(=O)[C@@H]([C@@H](C)O)NC(=O)[C@@H](CC(=O)O)NC(=O)[C@H](CO)NC(=O)[C@@H](CCCN=C(N)N)NC(=O)[C@H](N)CSSC[C@H](C(N)=O)NC1=O = 20

Then this molecule:
// IC50 lookup, key: CSCC[C@@H]1NC(=O)[C@H](CCCN=C(N)N)NC(=O)[C@@H](N)CSSC[C@@H](C(N)=O)NC(=O)[C@H](CC(C)C)NC(=O)[C@H]([C@@H](C)O)NC(=O)[C@H](CC(=O)O)NC1=O
3.2

###

target_of_assay: Integrin alpha-4/beta-7 (Homo sapiens, UniProt P13612+P26010)
assay_comment: Ability to block the alpha4-beta7 integrin-MAdCAM-1 binding interaction using a protein ELISA format
Peptide text beside a SMILES is read from it.
The compounds listed here are annotated with their pIC50.
Conceptually, pIC50 converts a concentration in mol/L into minus its log10.

// pIC50 lookup, key: CC(C)C[C@@H]1NC(=O)[C@H](C)NC(=O)[C@H](CC(=O)O)NC(=O)[C@H](CO)NC(=O)[C@H](CCCN=C(N)N)NC(=O)[C@@H](N)CSSC[C@@H](C(N)=O)NC1=O (HELM PEPTIDE1{C.R.S.D.A.L.C.[am]}$PEPTIDE1,PEPTIDE1,1:R3-7:R3$$$V2.0)
5.00

Also check CC(C)C[C@@H]1NC(=O)[C@H]([C@@H](C)O)NC(=O)[C@H](CC(=O)O)NC(=O)[C@H](CO)NC(=O)[C@H](Cc2cnc[nH]2)NC(=O)[C@@H](N)CSSC[C@@H](C(N)=O)NC1=O
6.41

Also check CC(C)C[C@@H]1NC(=O)[C@H]([C@@H](C)O)NC(=O)[C@H](CC(=O)O)NC(=O)[C@H](CO)NC(=O)[C@H](CCCNC(=N)N)NC(=O)[C@@H](NC(=O)[C@@H](N)CC(=O)O)CSSC[C@@H](C(N)=O)NC1=O (HELM PEPTIDE1{D.C.R.S.D.T.L.C.[am]}$PEPTIDE1,PEPTIDE1,2:R3-8:R3$$$V2.0)
6.28

###

The compounds listed here are annotated with their IC50.
target_of_assay: Integrin alpha-4/beta-1 (Homo sapiens, UniProt P05556+P13612)
assay_comment: Inhibitory concentration affording 50% inhibition of alpha4-beta1 integrin binding to VCAM-1, using ELISA assay.
Return type: number; implicit unit nM.

CC(C)C[C@@H]1NC(=O)[C@H]([C@@H](C)O)NC(=O)[C@H](CC(=O)O)NC(=O)[C@H](CO)NC(=O)[C@H](Cc2ccccc2)NC(=O)[C@@H](N)CSSC[C@@H](C(N)=O)NC1=O = 50

Then this compound:
// IC50 lookup, key: CC(C)C[C@@H]1NC(=O)[C@H](CCCN=C(N)N)NC(=O)[C@@H](N)CSSC[C@@H](C(N)=O)NC(=O)[C@H](CC(C)C)NC(=O)[C@H]([C@@H](C)O)NC(=O)[C@H](CC(=O)O)NC1=O
800

###

The compounds listed here are annotated with their pIC50.
target_of_assay: Integrin alpha-4/beta-7 (Homo sapiens, UniProt P13612+P26010)
assay_comment: Ability to block the alpha4-beta7 integrin-MAdCAM-1 binding interaction using a protein ELISA format
Peptide text beside a SMILES is read from it.
Conceptually, pIC50 converts a concentration in mol/L into minus its log10.

CC(C)C[C@@H]1NC(=O)[C@H]([C@@H](C)O)NC(=O)[C@H](CC(=O)O)NC(=O)[C@H]([C@@H](C)O)NC(=O)[C@H](CCCN=C(N)N)NC(=O)[C@@H](N)CSSC[C@@H](C(N)=O)NC1=O = 5.68
CC(C)C[C@@H]1NC(=O)[C@H]([C@@H](C)O)NC(=O)[C@H](CC(=O)O)NC(=O)[C@H](CO)NC(=O)[C@H](Cc2ccc(O)cc2)NC(=O)[C@@H](N)CSSC[C@@H](C(N)=O)NC1=O = 6.89

Provide value of pIC50 for this record tested with Integrin alpha-4/beta-7 (Homo sapiens, UniProt P13612+P26010): CSCC[C@H](N)C(=O)N[C@@H](CC(=O)O)C(=O)N[C@H]1CSSC[C@@H](C(N)=O)NC(=O)[C@H](CC(C)C)NC(=O)[C@H]([C@@H](C)O)NC(=O)[C@H](CC(=O)O)NC(=O)[C@H](CO)NC(=O)[C@H](CCCN=C(N)N)NC1=O (HELM PEPTIDE1{M.D.C.R.S.D.T.L.C.[am]}$PEPTIDE1,PEPTIDE1,3:R3-9:R3$$$V2.0)
6.19

Also check CC(C)C[C@@H]1NC(=O)[C@H]([C@@H](C)O)NC(=O)[C@H](CC(=O)O)NC(=O)[C@H](CO)NC(=O)[C@H](Cc2ccccc2)NC(=O)[C@@H](N)CSSC[C@@H](C(N)=O)NC1=O
6.26

Also check CC(C)C[C@@H]1NC(=O)[C@H](CCCN=C(N)N)NC(=O)[C@@H](N)CSSC[C@@H](C(N)=O)NC(=O)[C@H](CC(C)C)NC(=O)[C@H]([C@@H](C)O)NC(=O)[C@H](CC(=O)O)NC1=O
5.72

###

target_of_assay: Integrin alpha-4/beta-7 (Homo sapiens, UniProt P13612+P26010)
Sequence (P13612 whole entry): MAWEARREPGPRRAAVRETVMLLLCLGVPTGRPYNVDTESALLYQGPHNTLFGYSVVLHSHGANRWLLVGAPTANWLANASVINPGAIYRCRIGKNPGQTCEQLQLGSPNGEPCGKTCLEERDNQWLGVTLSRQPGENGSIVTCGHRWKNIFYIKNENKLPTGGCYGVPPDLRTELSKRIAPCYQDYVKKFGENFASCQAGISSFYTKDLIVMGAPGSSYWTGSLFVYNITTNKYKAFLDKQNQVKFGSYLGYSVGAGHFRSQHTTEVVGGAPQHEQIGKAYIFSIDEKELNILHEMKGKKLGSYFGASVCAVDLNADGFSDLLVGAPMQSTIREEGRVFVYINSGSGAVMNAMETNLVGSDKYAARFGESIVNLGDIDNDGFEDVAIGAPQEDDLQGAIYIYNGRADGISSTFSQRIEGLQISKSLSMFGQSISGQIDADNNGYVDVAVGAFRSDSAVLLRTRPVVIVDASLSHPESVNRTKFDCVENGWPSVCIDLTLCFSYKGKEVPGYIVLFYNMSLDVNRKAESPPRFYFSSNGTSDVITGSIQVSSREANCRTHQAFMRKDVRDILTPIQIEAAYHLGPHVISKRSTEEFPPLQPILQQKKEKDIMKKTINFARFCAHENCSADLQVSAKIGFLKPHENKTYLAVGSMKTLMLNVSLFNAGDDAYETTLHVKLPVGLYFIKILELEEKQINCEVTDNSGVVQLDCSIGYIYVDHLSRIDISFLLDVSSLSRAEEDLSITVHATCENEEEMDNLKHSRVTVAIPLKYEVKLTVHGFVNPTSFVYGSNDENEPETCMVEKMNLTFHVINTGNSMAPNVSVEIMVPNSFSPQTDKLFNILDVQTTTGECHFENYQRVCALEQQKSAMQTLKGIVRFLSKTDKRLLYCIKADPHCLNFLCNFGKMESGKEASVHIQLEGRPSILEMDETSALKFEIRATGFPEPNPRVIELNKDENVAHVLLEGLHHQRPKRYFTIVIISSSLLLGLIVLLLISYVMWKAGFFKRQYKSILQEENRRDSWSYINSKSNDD
Sequence (P26010 whole entry): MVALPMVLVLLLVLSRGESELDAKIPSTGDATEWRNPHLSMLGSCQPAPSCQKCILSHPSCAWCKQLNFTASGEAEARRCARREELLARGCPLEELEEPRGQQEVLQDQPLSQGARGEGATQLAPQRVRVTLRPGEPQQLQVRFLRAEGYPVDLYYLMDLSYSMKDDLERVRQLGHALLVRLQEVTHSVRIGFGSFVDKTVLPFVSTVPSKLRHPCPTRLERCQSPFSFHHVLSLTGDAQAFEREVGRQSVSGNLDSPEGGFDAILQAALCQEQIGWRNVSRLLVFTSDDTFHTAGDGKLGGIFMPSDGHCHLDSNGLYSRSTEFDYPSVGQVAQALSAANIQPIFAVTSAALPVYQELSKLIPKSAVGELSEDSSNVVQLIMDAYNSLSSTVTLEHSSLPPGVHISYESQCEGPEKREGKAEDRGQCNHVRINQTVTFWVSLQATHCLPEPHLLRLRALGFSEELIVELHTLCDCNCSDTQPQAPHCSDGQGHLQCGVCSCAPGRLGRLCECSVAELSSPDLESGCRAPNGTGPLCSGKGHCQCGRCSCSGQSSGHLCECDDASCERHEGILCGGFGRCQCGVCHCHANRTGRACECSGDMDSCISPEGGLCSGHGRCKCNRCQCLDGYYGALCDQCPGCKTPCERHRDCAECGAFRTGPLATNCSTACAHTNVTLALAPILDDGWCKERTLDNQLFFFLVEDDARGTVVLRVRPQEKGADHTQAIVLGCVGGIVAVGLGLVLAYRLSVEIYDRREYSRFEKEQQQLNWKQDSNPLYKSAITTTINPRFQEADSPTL
assay_comment: Ability to block the alpha4-beta7 integrin-MAdCAM-1 binding interaction using a protein ELISA format
Peptide text beside a SMILES is read from it.
assay_endpoint: pIC50
Conceptually, pIC50 converts a concentration in mol/L into minus its log10.

CC(C)C[C@@H]1NC(=O)[C@H]([C@@H](C)O)NC(=O)[C@H](CC(=O)O)NC(=O)[C@H](CO)NC(=O)[C@H](CCCNC(=N)N)NC(=O)[C@@H](N)CSSC[C@@H](C(=O)O)NC1=O = 6.89
CC(C)C[C@@H]1NC(=O)[C@H]([C@@H](C)O)NC(=O)[C@H](CC(=O)O)NC(=O)[C@H](CO)NC(=O)[C@H](Cc2c[nH]c3ccccc23)NC(=O)[C@@H](N)CSSC[C@@H](C(N)=O)NC1=O = 6.37
CC(C)C[C@@H]1NC(=O)[C@H]([C@@H](C)O)NC(=O)[C@H](CC(=O)O)NC(=O)[C@H](CO)NC(=O)[C@H](CCCNC(=N)N)NC(=O)[C@@H](N)CSSC[C@@H](C(N)=O)NC1=O = 6.92

Then this molecule:
// pIC50 lookup, key: CC(C)C[C@@H]1NC(=O)[C@H]([C@@H](C)O)NC(=O)[C@H](CC(=O)O)NC(=O)[C@H](C)NC(=O)[C@H](CCCNC(=N)N)NC(=O)[C@@H](N)CSSC[C@@H](C(N)=O)NC1=O (HELM PEPTIDE1{C.R.A.D.T.L.C.[am]}$PEPTIDE1,PEPTIDE1,1:R3-7:R3$$$V2.0)
5.66
